system: HL-60; assay: NCI tumour cell line growth inhibition, 48 h
Active and inactive are the calls of the source. No stated cut-off is given here; in the data, active = GI50 up to about 1.1 µM and inactive = higher.
readout: GI50

[[record]]
molecule = "Cc1ccccc1C1SCc2nc3ccccc3n21 (centres undefined)"
result = "1.92 µM (inactive)"

[[record]]
molecule = "Brc1ccc2c(-c3csc(-c4c[nH]c5ccc(Br)cc45)n3)c[nH]c2c1"
result = "5.22 µM (inactive)"

[[record]]
molecule = "COc1ccc(C(=C[N+](=O)[O-])c2ccc(OC)cc2)cc1"
result = "5.19 µM (inactive)"

[[record]]
molecule = "COc1ccc2c(=O)c([Se]c3coc4cc(OC)ccc4c3=O)coc2c1"
result = "40.4 µM (inactive)"

[[record]]
molecule = "Cc1ccc(/N=C2/C(c3ccccc3)=C(SC3=C(c4ccccc4)/C(=N/c4ccc(C)cc4)c4ccccc43)c3ccccc32)cc1"
result = "7.87 µM (inactive)"

[[record]]
molecule = "C[C@]12CCC(=O)C=C1CC[C@@H]1[C@@H]2CC[C@]2(C)C(=O)/C(=C/c3ccncc3)C[C@@H]12"
result = "8.51 µM (inactive)"

[[record]]
molecule = "CN1C(=O)C(O)C[C@@H]1c1ccccc1 (some centres undefined)"
result = "> 100 µM (inactive)"

[[record]]
molecule = "CSc1nncc(-c2cc3c(c(SC)n2)CCC3)n1"
result = "> 100 µM (inactive)"

[[record]]
molecule = "CCCCCCCCCC[S+]([O-])CC(CO)NC(=O)/C=C/c1c(C)nc(O)nc1O (centres undefined)"
result = "0.815 µM (active)"

[[record]]
molecule = "Cc1oc2nc(N(C)C)n3nnnc3c2c1C"
result = "18.6 µM (inactive)"

[[record]]
molecule = "NC(=O)N/N=C1\\C[C@H]2CCCC[C@H]2C1"
result = "> 100 µM (inactive)"

[[record]]
molecule = "COc1cc2c(cc1O)CC13CCC(=O)N1CCc1cc(OC)c(O)c-2c13 (centres undefined)"
result = "> 68.1 µM (inactive)"

[[record]]
molecule = "COc1ccc(-c2c3c(nc4nc(SCC(=O)c5ccc(Br)cc5)nc(N)c24)CCCC3)cc1OC"
result = "90.6 µM (inactive)"

[[record]]
molecule = "COc1cccc(NC(=O)CSc2nnc(Cc3ccccc3)o2)c1"
result = "54.3 µM (inactive)"

[[record]]
molecule = "CN1CCC2(CC1)C(=O)N(NC(N)=O)C(=O)C2c1ccccc1 (centres undefined)"
result = "> 100 µM (inactive)"

[[record]]
molecule = "CC(C)C1/C(=N/O)CC(c2ccccc2)N(N=O)C1c1ccccc1 (centres undefined)"
result = "32.1 µM (inactive)"

[[record]]
molecule = "COC(=O)CCCCCOS(=O)(=O)c1ccc(C)cc1"
result = "> 100 µM (inactive)"

[[record]]
molecule = "CCOC(=O)CC(NC(=O)c1nc[nH]c1[N+](=O)[O-])C(=O)OCC (centres undefined)"
result = "> 10 µM (inactive)"

[[record]]
molecule = "O=C1CCC(O)=C1O"
result = "> 100 µM (inactive)"

[[record]]
molecule = "CCOC(=O)N/N=C(\\CC)OCC"
result = "> 100 µM (inactive)"

[[record]]
molecule = "CCn1c2ccccc2c2ccc(C3C4C(=O)N(c5cccc6ccccc56)C(=O)C4ON3C(C(N)=O)c3ccccc3)cc21 (centres undefined)"
result = "17.7 µM (inactive)"

[[record]]
molecule = "Cc1ccc(C(=O)/C=C2\\Nc3cccnc3NC2=O)cc1"
result = "> 100 µM (inactive)"

[[record]]
molecule = "COc1cc2oc(-c3ccc(O)cc3)cc(=O)c2c(OC)c1OC"
result = "> 100 µM (inactive)"

[[record]]
molecule = "CC1=NCC[N+]1(CCc1ccccc1)Cc1ccccc1 (centres undefined)"
result = "16.6 µM (inactive)"

[[record]]
molecule = "O=C(CSc1nc2ccc(I)cc2c(=O)n1Cc1ccccc1)Nc1ccccc1"
result = "> 100 µM (inactive)"

[[record]]
molecule = "CSc1nc2c(c(O)c(C)c(=O)n2C2OCC(OC(C)=O)C(OC(C)=O)C2OC(C)=O)c(=O)n1C (centres undefined)"
result = "> 100 µM (inactive)"

[[record]]
molecule = "COc1ccc(CCn2ccc(=O)c(O)c2C)cc1OC"
result = "32.2 µM (inactive)"

[[record]]
molecule = "COC(=O)[C@](C)(Cc1ccccc1)NC(=O)[C@@H](C)N1[C@@H](c2ccccc2)COC1(C)C"
result = "63.5 µM (inactive)"

[[record]]
molecule = "Cc1cc2c(nn1)-c1ccccc1C2=O"
result = "> 10 µM (inactive)"

[[record]]
molecule = "CCOC(=O)Nn1c(C)nnc1CC#N"
result = "> 100 µM (inactive)"

[[record]]
molecule = "O=C(NC1(C(=O)O)CC1c1ccccc1)c1ccccc1 (centres undefined)"
result = "> 100 µM (inactive)"

[[record]]
molecule = "Fc1cc(C2=C[C@H](c3ccc(Cl)cc3)NC(=S)N2)c(Cl)cc1Cl"
result = "20.6 µM (inactive)"

[[record]]
molecule = "N#CC1(C#N)C(c2ccccc2)C=CC(c2ccc([N+](=O)[O-])cc2)C1(C#N)C#N (centres undefined)"
result = "0.223 µM (active)"

[[record]]
molecule = "CCOC(=O)C1(C)CCC(C(=O)OC)C1=O (centres undefined)"
result = "53.1 µM (inactive)"

[[record]]
molecule = "CCCCCCCCCC1CC(=O)Oc2cccc(O)c21 (centres undefined)"
result = "27.9 µM (inactive)"

[[record]]
molecule = "COc1ccc(/C=N/n2cnc3c(c2=O)SC(=C(C#N)C#N)N3c2ccccc2)cc1"
result = "> 100 µM (inactive)"

[[record]]
molecule = "c1ccc(C2C3=C(CCCC3)Nc3nnnn32)cc1 (centres undefined)"
result = "33.1 µM (inactive)"

[[record]]
molecule = "Cc1cc(C)c(C[C@H]2COC(=O)[C@]2(O)Cc2c(C)cc(C)cc2C)c(C)c1"
result = "14.7 µM (inactive)"

[[record]]
molecule = "O=C(CCC(=O)Nc1ccc(Cl)c(Cl)c1)CC(=O)c1ccc(F)cc1"
result = "> 100 µM (inactive)"

